Source listed as ChEMBL document CHEMBL1157526.

test system: Heart; test: Biodistribution in ddY mouse heart at 0.5 uCi, iv after 10 mins; assay type: ADME, organism-based; settings: in vivo
quantity-name: Drug uptake
Record the result as a number with its unit.

Here's what some known entries look like.
> print(dat)
                               query.smiles          val
1  CN(C)c1ccc(-c2nc(-c3ccc([125I])cc3)no2)cc1  4.81 % ID/g
2    Nc1ccc(-c2nc(-c3ccc([125I])cc3)no2)cc1  4.02 % ID/g
3   COc1ccc(-c2nc(-c3ccc([125I])cc3)no2)cc1  4.44 % ID/g

Note: attention shifts to another entry.
Drug uptake value, target or system Heart, for CNc1ccc(-c2nc(-c3ccc([125I])cc3)no2)cc1 : 3.05 % ID/g

* * *

test system: Pancreas; assay: Biodistribution in ddY mouse pancreas at 0.5 uCi, iv after 2 mins; assay type: ADME, organism-based; details: in vivo
quantity-name: Drug uptake (% ID/g)
Entry rule: numbers only, all in % ID/g.

Here's what some known entries look like.
> print(dat)
                               query.smiles       u   val
1  CN(C)c1ccc(-c2nc(-c3ccc([125I])cc3)no2)cc1  % ID/g  3.17
2   CNc1ccc(-c2nc(-c3ccc([125I])cc3)no2)cc1  % ID/g  3.34
3   COc1ccc(-c2nc(-c3ccc([125I])cc3)no2)cc1  % ID/g  4.55

Note: attention shifts to another entry.
response.value for Nc1ccc(-c2nc(-c3ccc([125I])cc3)no2)cc1 (field: Drug uptake) = 3.69

* * *

Drug uptake overview
system: Pancreas; assay: Biodistribution in ddY mouse pancreas at 0.5 uCi, iv after 10 mins; type: ADME, organism-based; details: in vivo
Record the result as a number with its unit.

> print(dat)
                             query.smiles  target.or.test.system  quantity.name          val
1  Nc1ccc(-c2nc(-c3ccc([125I])cc3)no2)cc1               Pancreas    Drug uptake  3.88 % ID/g

response.value for CNc1ccc(-c2nc(-c3ccc([125I])cc3)no2)cc1 (field: Drug uptake) = 3.91 % ID/g

response.value for COc1ccc(-c2nc(-c3ccc([125I])cc3)no2)cc1 (field: Drug uptake) = 4.94 % ID/g

response.value for CN(C)c1ccc(-c2nc(-c3ccc([125I])cc3)no2)cc1 (field: Drug uptake) = 3.8 % ID/g

* * *

tested on: Kidney; assay: Biodistribution in ddY mouse kidney at 0.5 uCi, iv after 2 mins; format: ADME, organism-based; settings: in vivo
quantity-name: Drug uptake (% ID/g)
Entry rule: numbers only, all in % ID/g.

> print(dat)
                               query.smiles       u   val
1  CN(C)c1ccc(-c2nc(-c3ccc([125I])cc3)no2)cc1  % ID/g  7.83
2    Nc1ccc(-c2nc(-c3ccc([125I])cc3)no2)cc1  % ID/g  8.24

response.value for CNc1ccc(-c2nc(-c3ccc([125I])cc3)no2)cc1 (field: Drug uptake) = 9.53

response.value for COc1ccc(-c2nc(-c3ccc([125I])cc3)no2)cc1 (field: Drug uptake) = 8.77

* * *

tested on: Spleen; assay: Biodistribution in ddY mouse spleen at 0.5 uCi, iv after 30 mins; assay type: ADME, organism-based; settings: in vivo, 0.5 h
quantity-name: Drug uptake (% ID/g)
Entry rule: numbers only, all in % ID/g.

> print(dat)
                               query.smiles   val
1   CNc1ccc(-c2nc(-c3ccc([125I])cc3)no2)cc1  2.84
2  CN(C)c1ccc(-c2nc(-c3ccc([125I])cc3)no2)cc1  3.11
3    Nc1ccc(-c2nc(-c3ccc([125I])cc3)no2)cc1  6.89

Note: attention shifts to another entry.
response.value for COc1ccc(-c2nc(-c3ccc([125I])cc3)no2)cc1 (field: Drug uptake) = 2.13

* * *

Ki overview
assay: Displacement of [125I]IMPY from amyloid beta (1-42) aggregates
Entry rule: numbers only, all in nM.

Here's what some known entries look like.
> print(dat)
                            query.smiles  quantity.name   val
1  CN(C)c1ccc(-c2nc(-c3ccc(I)cc3)no2)cc1             Ki  15.4
2      Nc1ccc(-c2nc(-c3ccc(I)cc3)no2)cc1             Ki  14.2

response.value for CNc1ccc(-c2nc(-c3ccc(I)cc3)no2)cc1 (field: Ki) = 14.3

response.value for COc1ccc(-c2nc(-c3ccc(I)cc3)no2)cc1 (field: Ki) = 4.3

response.value for Oc1ccc(-c2nc(-c3ccc(I)cc3)no2)cc1 (field: Ki) = 47.1

* * *

tested on: Stomach; assay: Biodistribution in ddY mouse stomach at 0.5 uCi, iv after 60 mins; format: ADME, organism-based; details: in vivo, 1 h
quantity-name: Drug uptake (% ID/organ)
Entry rule: numbers only, all in % ID/organ.

> print(dat)
                              query.smiles           u   val
1  COc1ccc(-c2nc(-c3ccc([125I])cc3)no2)cc1  % ID/organ  3.16

response.value for CN(C)c1ccc(-c2nc(-c3ccc([125I])cc3)no2)cc1 (field: Drug uptake) = 5.75

response.value for CNc1ccc(-c2nc(-c3ccc([125I])cc3)no2)cc1 (field: Drug uptake) = 7.38

response.value for Nc1ccc(-c2nc(-c3ccc([125I])cc3)no2)cc1 (field: Drug uptake) = 5.15

* * *

tested on: Heart; assay: Biodistribution in ddY mouse heart at 0.5 uCi, iv after 30 mins; assay type: ADME, organism-based; settings: in vivo, 0.5 h
Drug uptake overview
Entry rule: numbers only, all in % ID/g.

> print(dat)
                              query.smiles  quantity.name       u   val
1  COc1ccc(-c2nc(-c3ccc([125I])cc3)no2)cc1    Drug uptake  % ID/g  1.84

response.value for Nc1ccc(-c2nc(-c3ccc([125I])cc3)no2)cc1 (field: Drug uptake) = 3.48

response.value for CNc1ccc(-c2nc(-c3ccc([125I])cc3)no2)cc1 (field: Drug uptake) = 1.68

response.value for CN(C)c1ccc(-c2nc(-c3ccc([125I])cc3)no2)cc1 (field: Drug uptake) = 2.2

* * *

test system: Heart; experiment: Biodistribution in ddY mouse heart at 0.5 uCi, iv after 60 mins; format: ADME, organism-based; conditions: in vivo, 1 h
Drug uptake overview
Entry rule: numbers only, all in % ID/g.

Here's what some known entries look like.
> print(dat)
                               query.smiles  target.or.test.system   val
1    Nc1ccc(-c2nc(-c3ccc([125I])cc3)no2)cc1                  Heart  3.51
2  CN(C)c1ccc(-c2nc(-c3ccc([125I])cc3)no2)cc1                  Heart  1.24
3   CNc1ccc(-c2nc(-c3ccc([125I])cc3)no2)cc1                  Heart  1.27

Note: attention shifts to another entry.
response.value for COc1ccc(-c2nc(-c3ccc([125I])cc3)no2)cc1 (field: Drug uptake) = 1.35

* * *

test system: Blood; assay: Biodistribution in ddY mouse blood at 0.5 uCi, iv after 30 mins; type: ADME, organism-based; details: in vivo, 0.5 h
quantity-name: Drug uptake (% ID/g)
Entry rule: numbers only, all in % ID/g.

Here's what some known entries look like.
> print(dat)
                              query.smiles   val
1  CNc1ccc(-c2nc(-c3ccc([125I])cc3)no2)cc1  1.52
2   Nc1ccc(-c2nc(-c3ccc([125I])cc3)no2)cc1  3.09

response.value for COc1ccc(-c2nc(-c3ccc([125I])cc3)no2)cc1 (field: Drug uptake) = 1.23

response.value for CN(C)c1ccc(-c2nc(-c3ccc([125I])cc3)no2)cc1 (field: Drug uptake) = 1.79

* * *

Drug uptake overview
test system: Spleen; test: Biodistribution in ddY mouse spleen at 0.5 uCi, iv after 2 mins; type: ADME, organism-based; details: in vivo
Entry rule: numbers only, all in % ID/g.

Here's what some known entries look like.
> print(dat)
                              query.smiles   val
1  CNc1ccc(-c2nc(-c3ccc([125I])cc3)no2)cc1  4.58
2  COc1ccc(-c2nc(-c3ccc([125I])cc3)no2)cc1  4.41
3   Nc1ccc(-c2nc(-c3ccc([125I])cc3)no2)cc1  6.13

response.value for CN(C)c1ccc(-c2nc(-c3ccc([125I])cc3)no2)cc1 (field: Drug uptake) = 6.26
